- Target: androgen receptor (AR) (Homo sapiens)
- Construct: CHO background by own knowledge)
- Sequence (P10275 whole entry): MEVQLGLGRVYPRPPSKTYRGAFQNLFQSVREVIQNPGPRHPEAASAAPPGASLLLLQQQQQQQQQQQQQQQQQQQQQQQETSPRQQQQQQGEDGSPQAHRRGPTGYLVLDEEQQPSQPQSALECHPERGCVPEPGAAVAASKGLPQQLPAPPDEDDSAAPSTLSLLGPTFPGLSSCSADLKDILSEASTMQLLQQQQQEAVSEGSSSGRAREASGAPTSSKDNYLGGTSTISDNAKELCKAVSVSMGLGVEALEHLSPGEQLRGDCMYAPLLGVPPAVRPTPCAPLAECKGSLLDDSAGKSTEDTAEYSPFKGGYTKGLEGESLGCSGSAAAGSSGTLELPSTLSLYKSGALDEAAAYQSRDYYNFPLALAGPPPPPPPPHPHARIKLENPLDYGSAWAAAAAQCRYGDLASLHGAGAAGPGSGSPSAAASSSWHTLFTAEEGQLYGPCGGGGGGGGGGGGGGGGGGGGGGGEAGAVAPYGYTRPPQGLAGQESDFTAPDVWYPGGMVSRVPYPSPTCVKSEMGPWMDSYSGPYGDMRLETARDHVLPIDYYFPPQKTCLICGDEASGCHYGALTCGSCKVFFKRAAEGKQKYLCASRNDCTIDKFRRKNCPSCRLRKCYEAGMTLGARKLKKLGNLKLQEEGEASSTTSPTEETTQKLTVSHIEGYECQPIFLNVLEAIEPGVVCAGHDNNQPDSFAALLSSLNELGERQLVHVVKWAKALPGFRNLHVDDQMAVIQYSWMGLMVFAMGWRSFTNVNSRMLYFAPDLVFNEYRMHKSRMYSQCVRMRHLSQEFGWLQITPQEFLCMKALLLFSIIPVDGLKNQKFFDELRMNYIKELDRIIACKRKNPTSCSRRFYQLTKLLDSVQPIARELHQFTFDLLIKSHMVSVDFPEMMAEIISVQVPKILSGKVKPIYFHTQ
- Assay comment: cell-based
- Experimental setup: AR-Ecoscreen-GR-KO M1 cells, coexposed with 60 pM DHT, 24 h; read-out: AR antagonism IC50
Reported property: IC50 (µM)
Expressed in µM, but write only the number.

Query: Data request, read-out IC50, for CCNc1nc(NC(C)C)nc(SC)n1 [Ametryn]
Result: 93.9

* * *

- Target: human transthyretin (TTR) (Homo sapiens, UniProt P02766)
- Assay comment: FITC-T4 TTR-binding assay, initial (original) method
- Experimental setup: 3 uM
Kindly apply the following: fulfilled if % FITCT4 bound to TTR is less than 40%, not fulfilled in every other case.

INSERT INTO measurements (compound, assigned_class) VALUES
  ('Cc1cccc2[nH]nnc12 [4-methylbenzotriazole, 4-Methylbenzotriazole]', 'not fulfilled'),
  ('O=C(O)C(F)(F)C(F)(F)C(F)(F)C(F)(F)C(F)(F)C(F)(F)C(F)(F)F [PFOA, Perfluorooactanoic acid]', 'fulfilled'),
  ('O=C(O)C(F)(OC(F)(F)C(F)(F)C(F)(F)F)C(F)(F)F (centres unmarked) [GenX, Hexafluoropropylene oxide dimer acid]', 'not fulfilled'),
  ('O=C(O)C(F)(F)C(F)(F)C(F)(F)C(F)(F)C(F)(F)F [PFHxA, Perfluorohexanoic acid]', 'not fulfilled');

Moving on to another compound below.
Query: Consider CC1COC(Cn2cncn2)(c2ccc(Oc3ccc(Cl)cc3)cc2Cl)O1 (centres unmarked) [Difenoconazole] . Does its % FITCT4 bound to TTR lie strictly below 40%?
Result: not fulfilled
